The reported measurements were obtained from paper PMC9482650.

- subject_of_test: ARHGEF12, Q9NZN5-2
- Sequence (Q9NZN5 other isoform, or with tags, fused parts or gaps): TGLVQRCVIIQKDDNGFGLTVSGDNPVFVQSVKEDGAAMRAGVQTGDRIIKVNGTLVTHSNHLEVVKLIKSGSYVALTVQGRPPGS
- assay_explanation: holdup assay
- Design: key: below the threshold = too weak to quantify, mostly under pKd 3.1 to 4
- measurement_conditions: plain residues with an end cap or a label only (N-terminal biotin on a linker: ado-ado)
quantity: pKd

LKVPPEERLI [CRB2, Q5IJ48] :: below the threshold
NHSSSPETTA [TRMT13, Q9NUP7] :: below the threshold
SNAGNTATKA [NOSTRIN, Q8IVI9] :: below the threshold
